System: M18 aspartyl aminopeptidase (Plasmodium falciparum 3D7)
Experiment: inhibition of P. falciparum M18 aminopeptidase – biochemical, QFRET, recombinant enzyme, primary screen (AID 1822);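 further: 0% = plate median of test compound wells and 100% = 2 mM ZnCl2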
Conditions: recombinant PfM18AAP, H-Glu-NHMec fluorogenic cleavage; at 7.35 µM; hits give high values
In all, about 290,000 compounds went through this assay and about 3,500 (1.2%) were called active. Only a selection was taken, and actives are over-represented in it overall.

[
  {
    "COMPOUND": "O=C(CSc1nc(-c2ccccc2)cs1)Nc1cccc([N+](=O)[O-])c1",
    "inhibition": "1.5% (inactive)"
  },
  {
    "COMPOUND": "CC(=O)N1c2ccc(S(=O)(=O)N3CCC(C(=O)NC4CCCCC4C)CC3)cc2CC1C (configuration not stated)",
    "inhibition": "17.8% (inactive)"
  },
  {
    "COMPOUND": "COc1cc(N2C(=O)CSC2=S)cc(OC)c1OC",
    "inhibition": "6.36% (inactive)"
  },
  {
    "COMPOUND": "O=C(CSC1=NCCS1)Nc1nc(-c2ccccc2)cs1",
    "inhibition": "4.17% (inactive)"
  },
  {
    "COMPOUND": "CCCc1nc2ccccc2c(=O)n1NC(=O)c1c(O)c2ccccc2[nH]c1=O",
    "inhibition": "-1.38% (inactive)"
  },
  {
    "COMPOUND": "CCN1/C(=C/C(=S)Nc2ccccc2)Sc2ccccc21",
    "inhibition": "46.3% (active)"
  },
  {
    "COMPOUND": "CCCN1C2CCCC1CC(NC(=O)c1cccc(OC)c1)C2 (configuration not stated)",
    "inhibition": "-5.08% (inactive)"
  },
  {
    "COMPOUND": "CCOc1cccc(/C=N/N2C(=O)CSC2=S)c1O",
    "inhibition": "38.7% (active)"
  },
  {
    "COMPOUND": "O=C(O)c1ccccc1-c1ccccc1C(=O)NCCc1ccccc1",
    "inhibition": "0.27% (inactive)"
  },
  {
    "COMPOUND": "O=C(CSc1ncn[nH]1)N/N=C/c1ccc(F)cc1",
    "inhibition": "21.1% (inactive)"
  },
  {
    "COMPOUND": "Cc1ccnc(NC(=O)C2CCN(S(=O)(=O)c3c(C)c(C)cc(C)c3C)CC2)c1",
    "inhibition": "3.42% (inactive)"
  },
  {
    "COMPOUND": "Cc1nc(N=C(N)N)nc2c(C)cccc12",
    "inhibition": "3.01% (inactive)"
  },
  {
    "COMPOUND": "C=CCN(C(=O)Nc1ccc2oc(C)nc2c1)c1ccccc1",
    "inhibition": "13% (inactive)"
  },
  {
    "COMPOUND": "Cc1ccc(Nc2nnc(SCC(=O)c3cc4ccccc4o3)s2)cc1C",
    "inhibition": "6.69% (inactive)"
  },
  {
    "COMPOUND": "O=C(CSc1ncn[nH]1)Nc1nsc(-c2ccccc2)n1",
    "inhibition": "34.3% (active)"
  },
  {
    "COMPOUND": "Cc1cc(OCc2cc(C(=O)NCc3cc(C(C)C)no3)no2)cc(C)c1Cl",
    "inhibition": "-17.4% (inactive)"
  },
  {
    "COMPOUND": "CCOC(=O)[C@H]1[C@H]2COc3cc(OC)ccc3[C@@H]2N2C(=O)N(c3ccc(Br)cc3)C(=O)[C@@]12C",
    "inhibition": "8.12% (inactive)"
  },
  {
    "COMPOUND": "CCOc1ccc(S(=O)(=O)NCc2ccc3c(c2)OCO3)cc1C",
    "inhibition": "-10.2% (inactive)"
  },
  {
    "COMPOUND": "CCOc1ccccc1NC(=O)CCc1nnc2ccc(NCc3ccco3)nn12",
    "inhibition": "21.1% (inactive)"
  },
  {
    "COMPOUND": "O=C(Nc1nsc(-c2ccccc2)n1)c1ccncc1",
    "inhibition": "-9.47% (inactive)"
  },
  {
    "COMPOUND": "O=C(CCc1nnc2ccc(NCc3ccco3)nn12)Nc1cc(F)ccc1F",
    "inhibition": "26% (inactive)"
  },
  {
    "COMPOUND": "CCN1/C(=C/c2ccc3ccc(C)cc3[n+]2CC)Sc2ccccc21",
    "inhibition": "-2.79% (inactive)"
  },
  {
    "COMPOUND": "CCOC(=O)C1(CCOc2ccccc2)CCN(Cc2ccc(C#CCCO)cc2)CC1",
    "inhibition": "3.95% (inactive)"
  },
  {
    "COMPOUND": "O=C(Nc1ccc(C(=O)NCc2ccccc2Cl)cc1)C1=CSCCO1",
    "inhibition": "2.51% (inactive)"
  },
  {
    "COMPOUND": "C#CCOc1ccc(/C=C2/C(=O)NN(c3ccccc3)C2=O)cc1OC",
    "inhibition": "22% (inactive)"
  },
  {
    "COMPOUND": "CCN(CC)c1ccc2oc(=O)c(C)nc2c1",
    "inhibition": "55.5% (active)"
  },
  {
    "COMPOUND": "CCCc1cc(=O)n2[nH]c(C)c(-c3ccc(Cl)cc3)c2n1",
    "inhibition": "-3.86% (inactive)"
  },
  {
    "COMPOUND": "O=C(Nc1ccc(C(=O)N2CCOCC2)cc1)Nc1cccc(C(F)(F)F)c1",
    "inhibition": "-2.75% (inactive)"
  },
  {
    "COMPOUND": "CCCC(C(=O)NC1CCCC1)N(C(=O)Cn1nnc(-c2ccc(C)o2)n1)c1cccc(O)c1 (configuration not stated)",
    "inhibition": "-0.55% (inactive)"
  },
  {
    "COMPOUND": "CN(C)S(=O)(=O)c1cccc(NC(=S)NCc2ccc3c(c2)OCO3)c1",
    "inhibition": "-10.4% (inactive)"
  },
  {
    "COMPOUND": "Cc1cc(NC(=O)CSc2nnc(Nc3ccccc3F)s2)no1",
    "inhibition": "-12.2% (inactive)"
  },
  {
    "COMPOUND": "COc1ccc(C2/C(=C(/O)c3ccc4c(c3)CC(C)O4)C(=O)C(=O)N2Cc2ccncc2)cc1 (configuration not stated)",
    "inhibition": "16.6% (inactive)"
  },
  {
    "COMPOUND": "O=C(CSc1nc2ccccc2[nH]1)Nc1nc(-c2ccccc2)c(-c2ccccc2)o1",
    "inhibition": "1.21% (inactive)"
  },
  {
    "COMPOUND": "CN1/C(=C\\C=C2\\N=C(c3ccc(F)cc3)OC2=O)C(C)(C)c2ccccc21",
    "inhibition": "-0.7% (inactive)"
  },
  {
    "COMPOUND": "Cc1ccccc1Nc1nnc(SCC(=O)c2cc3ccccc3o2)s1",
    "inhibition": "28.2% (active)"
  },
  {
    "COMPOUND": "CCC(C)Sc1nc2c(cnn2-c2ccc(F)cc2)c(=O)[nH]1 (configuration not stated)",
    "inhibition": "1.81% (inactive)"
  },
  {
    "COMPOUND": "Cc1cccn2c(=O)c3cc(C(=O)NCC4CCCO4)c(=N)n(Cc4ccc(F)cc4)c3nc12 (configuration not stated)",
    "inhibition": "5.3% (inactive)"
  }
]

Value source: PubChem BioAssay AID1822
